# protocol-notes: Photochromic properties of cast polymer (2 mm thick) under xenon lamp irradiation for 120 seconds
# Format: physicochemical
# conditions-used: single chromene compound 0.04% by weight in polymer, 120 seconds, 20° C.; Table 5
property-name: Color density ε(120)-ε(0)

Query string: Item CC(C)(C)c1cc2ccccc2c2c1C=CC(c1ccccc1)(c1cc3ccccc3s1)O2 (stereo not drawn) has what recorded Color density ε(120)-ε(0)?
Result string: 1.0

1 = C1=CC2(Oc3c1ccc1ccccc31)C1CCCC2CCC1 (stereo not drawn) [d, reference compound]
2 = CCC(C)c1cc2ccccc2c2c1C=CC(c1ccc(OC)cc1)(c1ccc(OC)c(C#N)c1)O2 (stereo not drawn)
Query string: 1 or 2 : whose Color density ε(120)-ε(0) is greater? # respond with the chosen item's label
Result string: 1
(1: 1.0, 2: 0.7)
